B1: KLHL13 (parent)
chain: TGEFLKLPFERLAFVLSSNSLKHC

Variants of: B1
Test: protein stability index of a GFP-peptide fusion (GPS, HEK-293T) (PSI 1-6); higher = more stable;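 also: lentivirally expressed fusions sorted by FACS into six bins by GFP to DsRed ratio, PSI derived from sequencing read proportions per bin multiplied by bin number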
Conditions: c terminus: a fixed tail appended
quantity: protein stability index
// response body must contain only the number

Example results:
Tell us which protein stability index value is on record for S17A
3.79

Tell us which protein stability index value is on record for C24A
1.75

Tell us which protein stability index value is on record for S18D
2.42

Tell us which protein stability index value is on record for C24L
2.62

Next up:
Tell us which protein stability index value is on record for C24W
1.03
